Each recorded value in this set is attributed to paper PMC5815094.

system name: Hfq;Crc (Pseudomonas aeruginosa PAO1;Pseudomonas …, UniProt Q9HUM0;Q51380 1-82;1-259, |)
assay method text: MST; 30 nM labelled Hfq6, RNA titrated, 360 nM Crc; ES buffer: 10 mM Tris pH 8.0, 10 mM KCl, 40 mM NaCl, 1 mM MgCl2; MST + 0.05% Tween-20, room temperature; EMSA + 25 ng tRNA per 10 ul, 37 C 15 min (Fig 6D); NMR
experimental context: protein: recombinant;recombinant; tags: none stated;His6-tag (N-terminal) removed with HRV14-3C; chain copies: 6;1; label: 5'-32P (EMSA); unlabelled (MST)
pKd: −log10 of the molar value.

{"binder": "AAAAAUAACAACAAGAGG (ssRNA) [amiE6ARN]", "pKd": 7.47}
